- RUN_CONDITIONS: in acetone, 288.15 K
READOUT: solubility (mole fraction)
Field format: numeric only.

Q: Return solubility (mole fraction) for the following molecule: CC(=O)c1c(C)cc(C(C)(C)C)cc1C
A: 0.445

###

- RUN_CONDITIONS: in cyclohexane, 273.15 K
READOUT: solubility (mole fraction)
Field format: numeric only.

Q: Return solubility (mole fraction) for the following compound: CC(=O)c1c(C)cc(C(C)(C)C)cc1C
A: 0.279

###

- RUN_CONDITIONS: in n-octanol, 278.15 K
READOUT: solubility (mole fraction)
Field format: numeric only.

Q: Return solubility (mole fraction) for the following compound: CC(=O)c1c(C)cc(C(C)(C)C)cc1C
A: 0.161

###

- RUN_CONDITIONS: in isopropanol, 308.15 K
READOUT: solubility (mole fraction)

Q: Return solubility (mole fraction) for the following compound: CC(=O)c1c(C)cc(C(C)(C)C)cc1C
A: 0.729

###

- RUN_CONDITIONS: in methanol, 288.15 K
READOUT: solubility (mole fraction)
Field format: numeric only.

Q: Return solubility (mole fraction) for the following molecule: CC(=O)c1c(C)cc(C(C)(C)C)cc1C
A: 0.16

###

- RUN_CONDITIONS: in methanol, 308.15 K
READOUT: solubility (mole fraction)
Field format: numeric only.

Q: Return solubility (mole fraction) for the following compound: CC(=O)c1c(C)cc(C(C)(C)C)cc1C
A: 0.667

###

- RUN_CONDITIONS: in ethyl acetate, 303.15 K
READOUT: solubility (mole fraction)
Field format: numeric only.

Q: Return solubility (mole fraction) for the following compound: CC(=O)c1c(C)cc(C(C)(C)C)cc1C
A: 0.741

###

- RUN_CONDITIONS: in isopropanol, 283.15 K
READOUT: solubility (mole fraction)
Field format: numeric only.

Q: Return solubility (mole fraction) for the following compound: CC(=O)c1c(C)cc(C(C)(C)C)cc1C
A: 0.146

###

- RUN_CONDITIONS: in acetone, 308.15 K
READOUT: solubility (mole fraction)
Field format: numeric only.

Q: Return solubility (mole fraction) for the following compound: CC(=O)c1c(C)cc(C(C)(C)C)cc1C
A: 0.728

###

- RUN_CONDITIONS: in ethanol, 278.15 K
READOUT: solubility (mole fraction)
Field format: numeric only.

Q: Return solubility (mole fraction) for the following compound: CC(=O)c1c(C)cc(C(C)(C)C)cc1C
A: 0.095

###

- RUN_CONDITIONS: in methanol, 278.15 K
READOUT: solubility (mole fraction)
Field format: numeric only.

Q: Return solubility (mole fraction) for the following molecule: CC(=O)c1c(C)cc(C(C)(C)C)cc1C
A: 0.0828

###

- RUN_CONDITIONS: in n-octanol, 273.15 K
READOUT: solubility (mole fraction)
Field format: numeric only.

Q: Return solubility (mole fraction) for the following compound: CC(=O)c1c(C)cc(C(C)(C)C)cc1C
A: 0.123

###

- RUN_CONDITIONS: in n-octanol, 303.15 K
READOUT: solubility (mole fraction)
Field format: numeric only.

Q: Return solubility (mole fraction) for the following compound: CC(=O)c1c(C)cc(C(C)(C)C)cc1C
A: 0.6

###

- RUN_CONDITIONS: in acetone, 293.15 K
READOUT: solubility (mole fraction)
Field format: numeric only.

Q: Return solubility (mole fraction) for the following compound: CC(=O)c1c(C)cc(C(C)(C)C)cc1C
A: 0.505
